- Study target: HEV helicase (Hepatitis E virus genotype 1, UniProt P33424)
- Construct: The HEV helicase (735 bp) was amplified from the HEV (genotype 1; AF444002.1) cDNA clone; made in house; host or cells: E. coli BL21(DE3), pET28a; solubilised from inclusion bodies with NLS
- Sequence (P33424 960-1204): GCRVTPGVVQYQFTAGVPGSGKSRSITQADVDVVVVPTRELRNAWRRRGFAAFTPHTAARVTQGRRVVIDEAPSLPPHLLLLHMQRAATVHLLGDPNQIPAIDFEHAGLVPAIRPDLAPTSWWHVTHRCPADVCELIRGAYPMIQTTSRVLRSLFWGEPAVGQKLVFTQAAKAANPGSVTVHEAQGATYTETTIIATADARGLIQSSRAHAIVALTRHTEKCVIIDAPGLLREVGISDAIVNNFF
- Method notes: Double-stranded RNA unwinding activity / inhibition assay (fluorescence)
- Assay type: biochemical
- Protocol conditions: dsRNA unwinding, purified helicase, RT
Where a name gives a salt, the structure may show the parent alone.
Readout name: IC50 (µM)
Numeric answer only, unit µM assumed.

[
  {
    "Compound": "O=C(O)c1cc(=O)c2c(OCC(O)COc3cccc4oc(C(=O)O)cc(=O)c34)cccc2o1 [Disodium cromoglycate, disodium cromoglycate]",
    "Readout name": "IC50",
    "Unit annotation": "µM",
    "Test result": 39.8
  },
  {
    "Compound": "C[C@]12C=CC(=O)C=C1CC[C@@H]1[C@@H]2[C@@H](O)C[C@@]2(C)[C@H]1CC[C@]2(O)C(=O)CO [Prednisolone]",
    "Readout name": "IC50",
    "Unit annotation": "µM",
    "Test result": 25.8
  },
  {
    "Compound": "COc1cccc2c1C(=O)c1c(O)c3c(c(O)c1C2=O)C[C@@](O)(C(C)=O)C[C@@H]3O[C@H]1C[C@H](N)[C@H](O)[C@H](C)O1 [Daunorubicin HCL, daunorubicin HCL]",
    "Readout name": "IC50",
    "Unit annotation": "µM",
    "Test result": 8.25
  }
]

Pending compound:
Query: Write down the reported IC50 of CN1c2c(nc(N)[nH]c2=O)NC[C@@H]1CNc1ccc(C(=O)N[C@@H](CCC(=O)O)C(=O)O)cc1 [Levomefolic acid] , test system: HEV helicase (Hepatitis E virus genotype 1, UniProt P33424).
Result: 13.9
